# MEASUREMENT SETUP: in methanol, 298.15 K

QUERY SMILES	solubility (mole fraction)
Cc1c(C(=O)O)cccc1[N+](=O)[O-]	0.0264

----------
# MEASUREMENT SETUP: in isopropyl acetate, 283.15 K

QUERY SMILES	solubility (mole fraction)
Cc1c(C(=O)O)cccc1[N+](=O)[O-]	0.017

----------
# MEASUREMENT SETUP: in 1,4-dioxane, 313.15 K

QUERY SMILES	solubility (mole fraction)
Cc1c(C(=O)O)cccc1[N+](=O)[O-]	0.143

----------
# MEASUREMENT SETUP: in n-propyl acetate, 308.15 K
PARAMETER MEASURED: solubility (mole fraction)

QUERY SMILES	TEST VALUE
Cc1c(C(=O)O)cccc1[N+](=O)[O-]	0.0432
